# assaySystem: Peroxisome proliferator-activated receptor gamma (Homo sapiens)
# testMethodNotes: qHTS assay to identify small molecule antagonists of the peroxisome proliferator-activated receptor gamma (PPARg) signaling pathway (AID 743191); also: nearly all actives have a fitted effect of over 30% in size
# statedConditions: HEK293H PPARg-UAS-bla, beta-lactamase ratio, antagonist, 17 h; series mostly up to 62.6 µM
# From the text: U.S. Tox21 Program National Center for Advancing Translational Sciences [NCATS] NIH Chemical Genomics Center [NCGC] U.S. Environmental Protection Agency [EPA] National Institutes of Environmental Health Sciences [NIEHS] National Toxicology Program [NTP] U.S. Food and Drug Administration [FDA] […]
Records with an inconclusive call do not appear. Active and inactive are the calls of the source. Calls follow the shape of the full dose curve.
Assign a class; possible classes are 1 = active, -1 = inactive

CC(c1ccc(O)cc1)c1ccc(O)cc1    1
CC(C)(C)OO    -1
c1ccc2c(c1)[nH]c1cnccc12    -1

Exam item: Record request — test call for COP(=S)(OC)Oc1cc(Cl)c(Br)cc1Cl
Marked response: 1

Exam item: Now consider CC(=O)Nc1ccc2c(c1)Cc1ccccc1-2 .
Marked response: -1

Exam item: Now consider CNC(C)Cc1ccc2c(c1)OCO2 (stereo not drawn) .
Marked response: -1

Exam item: Now consider CC(=O)c1cc(C(C)(C)C)cc2c1CCC2(C)C .
Marked response: -1

Exam item: Now consider CCN .
Marked response: -1

Exam item: Now consider Cc1c(Cl)c(=O)oc2cc(OP(=O)(OCCCl)OCCCl)ccc12 .
Marked response: -1

Exam item: Now consider S=C=Nc1cccc2ccccc12 .
Marked response: -1

Exam item: Now consider CCCCCCCCCCCCBr .
Marked response: -1

Exam item: Now consider CN(C)CCc1c[nH]c2ccc(O)cc12 .
Marked response: -1

Exam item: Now consider Cc1cc(C)cc(OP(=O)(Oc2cc(C)cc(C)c2)Oc2cc(C)cc(C)c2)c1 .
Marked response: -1

* * *

# assaySystem: Acetylcholinesterase (Homo sapiens) (UniProt P22303)
# Sequence (P22303 whole entry, looked up): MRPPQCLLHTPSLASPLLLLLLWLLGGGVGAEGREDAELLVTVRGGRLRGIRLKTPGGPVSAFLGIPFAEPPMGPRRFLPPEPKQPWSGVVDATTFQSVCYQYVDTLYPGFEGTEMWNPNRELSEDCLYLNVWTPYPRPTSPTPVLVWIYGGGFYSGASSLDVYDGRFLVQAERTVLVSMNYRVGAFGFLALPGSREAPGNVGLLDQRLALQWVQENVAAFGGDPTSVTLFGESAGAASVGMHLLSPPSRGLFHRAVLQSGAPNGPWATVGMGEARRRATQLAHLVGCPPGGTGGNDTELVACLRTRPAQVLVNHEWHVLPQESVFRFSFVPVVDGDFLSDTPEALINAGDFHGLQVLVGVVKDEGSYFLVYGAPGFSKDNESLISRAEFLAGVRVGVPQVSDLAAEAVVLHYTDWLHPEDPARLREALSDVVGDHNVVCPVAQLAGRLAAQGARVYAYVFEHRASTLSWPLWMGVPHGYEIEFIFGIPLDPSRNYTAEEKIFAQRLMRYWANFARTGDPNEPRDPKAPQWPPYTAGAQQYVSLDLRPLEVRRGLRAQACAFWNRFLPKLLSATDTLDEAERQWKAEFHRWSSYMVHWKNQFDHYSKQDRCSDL
# testMethodNotes: Acetylcholinesterase (AChE) small molecule antagonists: fluorescence cell-based qHTS assay (AID 1347398); also: nearly all actives have a fitted effect of over 50% in size
# statedConditions: SH-SY5Y cells; AChE activity; series mostly up to 115 µM
Results filed as inconclusive are left out. Calls of active or inactive are those of the source. Calls come from the whole dose curve.
Assign a class; possible classes are active, inactive

Check out these entries, answers already filled in.
CCc1ccccc1C    inactive
Oc1c(Cl)c(Cl)cc(Cl)c1Cl    inactive
C[C@@H](Oc1ccc(Cl)cc1Cl)C(=O)O    inactive
Oc1cc(Cl)c(Cl)c(Cl)c1    inactive
C=CC(=O)OCCCCOC(=O)C=C    inactive

Exam item: Record request — test call for O=C(Nc1ccc2[nH]ccc2c1)c1cc2cc(F)ccc2n1Cc1cccc(F)c1
Marked response: inactive

Exam item: Now consider CC(O)C#N (stereo not given) .
Marked response: inactive

Exam item: Now consider COP(=O)(OC)SCn1c(=O)oc2cc(Cl)cnc21 .
Marked response: active

Exam item: Now consider Nc1c(Oc2ccccc2)cc(O)c2c1C(=O)c1ccccc1C2=O .
Marked response: inactive

Exam item: Now consider CCOC(=O)OC1=C(c2cc(C)ccc2C)C(=O)NC12CCC(OC)CC2 (stereo not given) .
Marked response: inactive

* * *

# testMethodNotes: qHTS assay to identify small molecule agonists of the sonic hedgehog signaling (Shh) pathway - cell viability counter screen (AID 1259366); also: nearly all actives have a fitted effect of over 50% in size; also: potency is read from the fitted curve at half-maximal effect
# statedConditions: NIH/3T3 Gli1-Luc viability, CellTiter-Fluor, 24 h; series mostly up to 92.4 µM
Inconclusive results are not listed. Activity calls are given as the source filed them. The call rests on the fitted dose curve; in most records, active means well fitted cell-killing curve with a large enough effect in the repeat runs; inconclusive means weak or mixed curves, or effect the other way; inactive means flat fitted curve, though single readings scatter.
quantity: Potency

CC1(C)[C@H](C(=O)O[C@H](C#N)c2cccc(Oc3ccccc3)c2)[C@@H]1/C=C(\Cl)C(F)(F)F    inactive
CCCCOP(=O)(CCCC)OCCCC    inactive
BrC(Br)Br    inactive
CC(C)CBr    inactive

Exam item: Could you tell me which Potency is on file for CCCN(CC)CC1COC2(CCC(C(C)(C)C)CC2)O1 (configuration not stated) ?
Marked response: inactive

Exam item: Now consider Oc1ccc(C(=C(Cl)Cl)c2ccc(O)cc2)cc1 .
Marked response: inactive

Exam item: Now consider O=C1c2ccccc2C(=O)C1C(=O)C(c1ccccc1)c1ccc(Cl)cc1 (configuration not stated) .
Marked response: inactive

Exam item: Now consider CCOCCOC(C)=O .
Marked response: inactive

Exam item: Now consider CCCCCCCCCC[N+](C)(C)CCCCCCCCCC .
Marked response: 21.7 µM (active)
